Taken from paper PMC6823300.

- target of assay: T1, S. pombe Csm1 C-terminal globular domain (residues 125–261), wild type (S. pombe, UniProt O13684 125-261)
- T1 construct: S. pombe Csm1 (also called Pcs1), C-terminal globular domain, residues 125-261; also called S. pombe Csm1^125–261; Sp Csm1; source: E. coli Rosetta2 (DE3) pLysS, purified
- T1 sequence (looked up): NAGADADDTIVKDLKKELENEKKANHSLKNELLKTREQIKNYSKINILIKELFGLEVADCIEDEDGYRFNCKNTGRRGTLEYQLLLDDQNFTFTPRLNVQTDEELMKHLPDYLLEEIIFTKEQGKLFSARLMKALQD
- measurement description: fluorescence polarisation; Csm1 125–261 at 20 nM-250 μM with 20 nM FITC-labelled Mis13 5–17 peptide; 20 mM Tris 7.5, 300 mM NaCl, 10% glycerol, 0.01% NP-40, 1 mM DTT; triplicate; single-site binding model
- protocol conditions: both partners purified
Where no end group is shown, it is not given here. The star is where a group is joined. FITC = O=C1OC2(c3ccc(O)cc3Oc3cc(O)ccc32)c2ccc(NC(=S)*)cc21
attribute measured: Kd (µM)
Numbers only, in µM.

In: Kd for {FITC}-PEEQEGFVFVRKG (S. pombe Mis13 (Dsn1), Dsn1-N/Box 1 region, residues 5-17; also called Sp Dsn1-N/Box 1 (residues 5–17); S. pombe Mis13 Dsn1-N region) [Sp Mis13 5–17 peptide (Dsn1-N/Box 1), fluorescein isothiocyanate-labelled] ?
Out: 22
